# literature pull: Insulin receptor (Homo sapiens, UniProt P06213) pIC50
pIC50: −log10 of the molar value.

Below, 4 compounds whose answers are already recorded.
CCOC(=O)/C=C/c1c(Oc2c(Cl)cccc2Cl)nc[nH]c1=O = < 4.40
CC(=O)/C=C/c1c(Oc2ccccc2Cl)nc[nH]c1=O = < 4.40
COc1ccc(C(=O)NC[C@@H](O)CO)cc1/C=C/c1ccc(Cl)cc1 = < 4.30
COc1ccc2c(c1)NC(=O)Cc1cnc3ccnn3c1-2 = < 4.00

The record that follows has no pIC50 shown yet.
Give Insulin receptor (Homo sapiens, UniProt P06213) pIC50 for "CC(C)C(=O)c1ccc(C(=O)Nc2nc3cc(N(C)C(=O)c4ccccc4)ccc3n2CCC(N)=O)s1"
< 5.22

---

# literature pull: Insulin receptor (Homo sapiens, UniProt P06213) pIC50
Here pIC50 is given on a logarithmic scale as minus log10 of the concentration in mol/L.

Below, 6 compounds whose answers are already recorded.
CN1CCN(Cc2ccc(-c3cnc4[nH]cc(-c5cnc6[nH]ccc6c5)c4c3)cc2)CC1 = 5.89
CN1CCN(c2ccc(C(=O)Nc3n[nH]c4ccc(Cc5cc(F)cc(F)c5)cc34)c(NC3CCCCC3)c2)CC1 = 5.42
CN(C(=O)c1ccccc1)c1ccc2c(c1)[nH]/c(=N\C(=O)c1cncs1)n2CCC(N)=O = 5.80
CCN1C(=O)CCCc2c1ccc(Nc1ncc(Cl)c(Nc3ccccc3S(=O)(=O)N(C)C)n1)c2OC = 7.15
COc1cc(N2CCN(N3CCOCC3)CC2)ccc1Nc1ncc2ccc(-c3ccccc3OC)n2n1 = 6.45
CN(Cc1ccc2c(c1)[nH]/c(=N\C(=O)c1ccc(-c3cn[nH]c3)s1)n2CC(C)(C)O)c1ccccc1 = 5.26

What does the data say about its pIC50? Entry: CCC(C)NCc1ccc2c(c1)nc(NC(=O)c1ccc(-c3cn[nH]c3)s1)n2CC(C)(C)O (stereo not drawn)
6.22

What does the data say about its pIC50? Entry: "Nc1nccc(-c2c[nH]c3c(Br)ccc(O)c23)n1"
4.10

---

# literature pull: Insulin receptor (Homo sapiens, UniProt P06213) IC50

COc1cc(Nc2ncnc3ccsc23)ccc1-c1nc2ccccc2s1 = > 10 µM
CN(C(=O)c1ccccc1)c1ccc2c(c1)nc(NC(=O)c1ccc(C#N)nc1)n2CCC(N)=O = > 10 µM
CC(C)(C)NC(=O)Nc1nc2nc(N)ncc2cc1-c1c(Cl)cccc1Cl = > 50 µM
Cc1cc(C(=O)Nc2nc3cc(N(C)C(=O)c4ccccc4)ccc3n2CCC(N)=O)ccc1C#N = > 10 µM

The record that follows has no IC50 shown yet.
What does the data say about its IC50? Entry: "CCOC(=O)/C=C/c1c(Oc2c(OC)cccc2OC)nc[nH]c1=O"
> 40 µM
